assay: folding stability dG unfold from trypsin proteolysis; higher = more stable

residue-sequence	folding stability dG unfold
SAGGKKKKVIIVIEAPPGMSAEEIAAAIAEKLGLPKEEIKVERFKSVEEALAAAEKEGKEVIVIEVDSAGGS [r8_245_TrROS_Hall]	2.06 kcal/mol
SAGGGISIVSGDPEITPEKAEAIAAELAAILEEKGFTPKDAELARLPGGRILVTITVDDGKPIVFSLSAGGS [r8_485_TrMRF]	1.77 kcal/mol
SAGGSMKIVEIKIKRNKNGKLTIEIKVELSEEELEDKEKRKKLIEELAKKLAEELEKKFGIKVEVPSAGGSA [r2_306_TrROS_Hall]	3.16 kcal/mol
SAGGSPTIKLEILLPKEMTPEEVEALARELEEAGYEIVSIKVETVKDEDGREWVRVTITLRPKEDLSAGGSA [r2_442_TrROS_Hall]	3.21 kcal/mol
SMTIEIEVDGKTVTVEIDPKTGKIKKVVVKDKETGEWKELSDEEIEKLLKELEDELREKREKLEKEGKEPSA [r9_368_TrROS_Hall]	2.32 kcal/mol
SAGGPWHEQKHEITDPDDGKPIKISHTHYPDGYPRVRIELNNGKKIEFMVPPNGPPTPDQLLDAIKQFSAGG [r13_492_TrROS]	0.317 kcal/mol
SAGGSAGGSAGVTIPDPGEEELRKALEAGREVRVAFPESGKVVLVEGPGPELGEEPEPAASAGGSAGGSAGG [r11_94_JUSTAS]	-0.619 kcal/mol
